Reference source for all entries: ChEMBL document CHEMBL1201862

Tested on: CAKI-1
Test: NCI tumour cell line growth inhibition, 48 h
The source made the active and inactive calls. Rule as the data show it: active = GI50 up to about 1.1 µM and inactive = higher.
Readout Kind: GI50

Cn1c(=O)nc2n(-c3cccc(F)c3)c3ccccc3nc-2c1=O :: 27.2 µM (inactive)
COC(=O)C1=C(C)C(=O)[C@]23C(CCCC[C@H]12)C(=O)[C@H](C(=O)OC)C3C (stereo not given in full) :: > 100 µM (inactive)
O=C(CN(c1ccccc1)c1ccccc1)N1c2ccccc2C2C=CC=CC21 (stereo not given) :: 18.3 µM (inactive)
[N-]=[N+]=Nc1c(Br)c(=O)[nH]c(=O)n1COCCO :: > 100 µM (inactive)
CCN1C(NN)=NS(=O)(=O)c2ccccc21 :: > 100 µM (inactive)
CCOC(=O)[C@@H]1C2C(=C[C@H]3[C@H]1C(=O)N1CCCC[C@H]31)CCCN2C(=O)OCc1ccccc1 (stereo not given in full) :: 43.1 µM (inactive)
C=C(Br)CNCC(=C)Br :: > 100 µM (inactive)
CC1(C)N=C(N)N=C(N)N1c1ccc(CCCCc2ccc(Cl)cc2Cl)cc1 :: 2.05 µM (inactive)
CCOC(=O)c1c(CN2CCCC2)n(-c2ccccc2)c2cc(Br)c(O)cc12 :: 17.1 µM (inactive)
C[C@H]1SC(c2ccc(Cl)cc2Cl)N(NC(=O)c2ccncc2)C1=O (stereo not given in full) :: > 100 µM (inactive)

###

System: HOP-92
Experiment: NCI tumour cell line growth inhibition, 48 h
Activity calls are given as the source filed them. Cut-off read from the data, not from the text of the source: active = GI50 up to about 1.1 µM and inactive = higher.
Outcomes: T for active, F for inactive

CC(C)OP(=O)(OC(C)C)/C(C#N)=C/c1c[nH]c2ccccc12 :: F
[N-]=[N+]=Nc1c(Br)c(=O)[nH]c(=O)n1COCCO :: F
Cc1oc(N)c(S(=O)(=O)c2ccc(Cl)cc2)c1C :: F
Cc1c(O)oc2ccccc2c1=O :: F
O=C(Nc1ccn(CCO)c(=O)n1)c1ccccc1 :: F
O=C(CC(=O)C1CCOC1=O)C(=O)Nc1cccc(Cl)c1 (stereo unspecified) :: F
C1CCNCC1.CN(C)c1ccc(/C=C2/NC(=S)NC2=O)cc1 :: F
Nc1ccc(-c2nc3cc(F)ccc3s2)cc1Br :: F
Cc1cc(C)[n+](CCOc2ccc(/C(=C(/Cl)c3ccccc3)c3ccccc3)cc2)c(C)c1.[O-][Cl+3]([O-])([O-])[O-] :: T
COc1ccc(/C=C2\CCS(=O)(=O)c3ccccc3C2=O)cc1 :: F
CCOC(=O)/C(=C\c1c[nH]c2ccccc12)P(=O)(OCC)OCC :: F

###

Tested on: RPMI-8226
Assay: NCI tumour cell line growth inhibition, 48 h
Activity calls are given as the source filed them. Rule as the data show it: active = GI50 up to about 1.1 µM and inactive = higher.
Readout Kind: GI50

CCOc1ccccc1NC(=O)C(=O)CC(=O)c1c(C)[n+]([O-])c2ccccc2[n+]1[O-] :: > 100 µM (inactive)
O=C(CCN1CCCCC1)Nc1ccc2sc3ccccc3c(=O)c2n1 :: 6.04 µM (inactive)
NCCP(=O)(O)O :: > 100 µM (inactive)
CC1(C)N=C(N)N=C(N)N1c1ccc(CCCCc2ccc(Cl)cc2Cl)cc1 :: 1.17 µM (inactive)
CN(C)CCCNC(=O)c1cc(NS(=O)(=O)c2ccc3c(c2)C(=O)c2ccccc2C3=O)cn1C :: 14.8 µM (inactive)
CCOC(=O)c1nnsc1NC(=O)Nc1ccc(Cl)cc1 :: 44.5 µM (inactive)
O=C(c1ccco1)N(C(=O)N1CCC(c2ccccc2)CC1)c1ccccc1 :: 17.4 µM (inactive)
Nc1ccc(S(=O)(=O)Nc2cnc3c(Cl)cccc3n2)cc1 [CHLORSULFAQUINOXALINE] :: 129 µM (inactive)
O=[N+]([O-])c1ccc(/C=N\N=c2/ccc([N+](=O)[O-])c[nH]2)cc1 :: > 100 µM (inactive)
Nc1nc(N)c(NC(=O)CCCO)c(=O)[nH]1 :: > 100 µM (inactive)
